Assay: Stability investigation of the crystalline forms (HPLC purity, samples placed open and flat)
Type: physicochemical
Conditions: heating at 40° C., Day 5
measure.name: HPLC purity Day 5 (%)

> print(dat)
                                    compound           measure.name  unit.label  recorded.result
 1  COC(=O)[C@H](c1ccccc1Cl)N1CC[C@@H]2SC(=O)C=C2C1 (racemic) [Comparative preparation example 3, reference compound]  HPLC purity Day 5 (%)           %            97.22
 2  COC(=O)[C@H](c1ccccc1Cl)N1CC[C@@H]2SC(=O)C=C2C1 [Example 3]  HPLC purity Day 5 (%)           %            99.93
 3  COC(=O)[C@H](c1ccccc1Cl)N1CC[C@@H]2SC(=O)C=C2C1 [Example 7]  HPLC purity Day 5 (%)           %            99.88
 4  COC(=O)[C@H](c1ccccc1Cl)N1CC[C@@H]2SC(=O)C=C2C1 [Example 4]  HPLC purity Day 5 (%)           %            99.89
 5  COC(=O)[C@H](c1ccccc1Cl)N1CC[C@@H]2SC(=O)C=C2C1 [Example 6]  HPLC purity Day 5 (%)           %            99.91
 6  COC(=O)[C@H](c1ccccc1Cl)N1CC[C@@H]2SC(=O)C=C2C1 [Example 5]  HPLC purity Day 5 (%)           %            99.87
 7  COC(=O)[C@H](c1ccccc1Cl)N1CC[C@@H]2SC(=O)C=C2C1 [Example 2]  HPLC purity Day 5 (%)           %            99.92
 8  COC(=O)[C@H](c1ccccc1Cl)N1CC[C@@H]2SC(=O)C=C2C1 [Example 1]  HPLC purity Day 5 (%)           %            99.82
 9  COC(=O)[C@H](c1ccccc1Cl)N1CC[C@@H]2SC(=O)C=C2C1 (racemic) [Comparative preparation example 1, reference compound]  HPLC purity Day 5 (%)           %            96.31
10  COC(=O)[C@H](c1ccccc1Cl)N1CC[C@@H]2SC(=O)C=C2C1 (racemic) [Comparative preparation example 2, reference compound]  HPLC purity Day 5 (%)           %            96.01

----------
Assay: Stability investigation of the crystalline forms (HPLC purity, samples placed open and flat)
Format: physicochemical
Conditions: heating at 40° C., Day 0
measure.name: HPLC purity Day 0 (%)

> print(dat)
                                    compound           measure.name  recorded.result
 1  COC(=O)[C@H](c1ccccc1Cl)N1CC[C@@H]2SC(=O)C=C2C1 [Example 1]  HPLC purity Day 0 (%)            99.82
 2  COC(=O)[C@H](c1ccccc1Cl)N1CC[C@@H]2SC(=O)C=C2C1 (racemic) [Comparative preparation example 1, reference compound]  HPLC purity Day 0 (%)            96.89
 3  COC(=O)[C@H](c1ccccc1Cl)N1CC[C@@H]2SC(=O)C=C2C1 [Example 5]  HPLC purity Day 0 (%)            99.87
 4  COC(=O)[C@H](c1ccccc1Cl)N1CC[C@@H]2SC(=O)C=C2C1 [Example 7]  HPLC purity Day 0 (%)            99.88
 5  COC(=O)[C@H](c1ccccc1Cl)N1CC[C@@H]2SC(=O)C=C2C1 [Example 3]  HPLC purity Day 0 (%)            99.94
 6  COC(=O)[C@H](c1ccccc1Cl)N1CC[C@@H]2SC(=O)C=C2C1 (racemic) [Comparative preparation example 2, reference compound]  HPLC purity Day 0 (%)            96.43
 7  COC(=O)[C@H](c1ccccc1Cl)N1CC[C@@H]2SC(=O)C=C2C1 [Example 4]  HPLC purity Day 0 (%)            99.89
 8  COC(=O)[C@H](c1ccccc1Cl)N1CC[C@@H]2SC(=O)C=C2C1 (racemic) [Comparative preparation example 3, reference compound]  HPLC purity Day 0 (%)            97.73
 9  COC(=O)[C@H](c1ccccc1Cl)N1CC[C@@H]2SC(=O)C=C2C1 [Example 2]  HPLC purity Day 0 (%)            99.92
10  COC(=O)[C@H](c1ccccc1Cl)N1CC[C@@H]2SC(=O)C=C2C1 [Example 6]  HPLC purity Day 0 (%)            99.91

----------
Test: Stability investigation of the crystalline forms (HPLC purity, samples placed open and flat)
Format: physicochemical
Conditions: high humidity of 90%, Day 10
measure.name: HPLC purity Day 10 (%)

> print(dat)
                                    molecule  recorded.result
 1  COC(=O)[C@H](c1ccccc1Cl)N1CC[C@@H]2SC(=O)C=C2C1 [Example 5]            99.86
 2  COC(=O)[C@H](c1ccccc1Cl)N1CC[C@@H]2SC(=O)C=C2C1 [Example 4]            99.89
 3  COC(=O)[C@H](c1ccccc1Cl)N1CC[C@@H]2SC(=O)C=C2C1 (racemic) [Comparative preparation example 3, reference compound]            97.58
 4  COC(=O)[C@H](c1ccccc1Cl)N1CC[C@@H]2SC(=O)C=C2C1 [Example 1]            99.81
 5  COC(=O)[C@H](c1ccccc1Cl)N1CC[C@@H]2SC(=O)C=C2C1 [Example 6]            99.90
 6  COC(=O)[C@H](c1ccccc1Cl)N1CC[C@@H]2SC(=O)C=C2C1 [Example 2]            99.91
 7  COC(=O)[C@H](c1ccccc1Cl)N1CC[C@@H]2SC(=O)C=C2C1 (racemic) [Comparative preparation example 1, reference compound]            96.69
 8  COC(=O)[C@H](c1ccccc1Cl)N1CC[C@@H]2SC(=O)C=C2C1 [Example 7]            99.87
 9  COC(=O)[C@H](c1ccccc1Cl)N1CC[C@@H]2SC(=O)C=C2C1 (racemic) [Comparative preparation example 2, reference compound]            96.23
10  COC(=O)[C@H](c1ccccc1Cl)N1CC[C@@H]2SC(=O)C=C2C1 [Example 3]            99.94

----------
Experiment: Stability investigation of the crystalline forms (HPLC purity, samples placed open and flat)
Format: physicochemical
Conditions: high humidity of 90%, Day 5
measure.name: HPLC purity Day 5 (%)

> print(dat)
                                   molecule           measure.name  recorded.result
1  COC(=O)[C@H](c1ccccc1Cl)N1CC[C@@H]2SC(=O)C=C2C1 [Example 6]  HPLC purity Day 5 (%)            99.91
2  COC(=O)[C@H](c1ccccc1Cl)N1CC[C@@H]2SC(=O)C=C2C1 [Example 2]  HPLC purity Day 5 (%)            99.92
3  COC(=O)[C@H](c1ccccc1Cl)N1CC[C@@H]2SC(=O)C=C2C1 [Example 3]  HPLC purity Day 5 (%)            99.94

----------
Assay: Stability investigation of the crystalline forms (HPLC purity, samples placed open and flat)
Assay type: physicochemical
Conditions: heating at 60° C., Day 0
measure.name: HPLC purity Day 0 (%)

> print(dat)
                                   molecule           measure.name  recorded.result
1  COC(=O)[C@H](c1ccccc1Cl)N1CC[C@@H]2SC(=O)C=C2C1 [Example 7]  HPLC purity Day 0 (%)            99.88
2  COC(=O)[C@H](c1ccccc1Cl)N1CC[C@@H]2SC(=O)C=C2C1 [Example 3]  HPLC purity Day 0 (%)            99.94
3  COC(=O)[C@H](c1ccccc1Cl)N1CC[C@@H]2SC(=O)C=C2C1 (racemic) [Comparative preparation example 2, reference compound]  HPLC purity Day 0 (%)            96.43
4  COC(=O)[C@H](c1ccccc1Cl)N1CC[C@@H]2SC(=O)C=C2C1 [Example 2]  HPLC purity Day 0 (%)            99.92
5  COC(=O)[C@H](c1ccccc1Cl)N1CC[C@@H]2SC(=O)C=C2C1 [Example 4]  HPLC purity Day 0 (%)            99.89

----------
Experiment: Stability investigation of the crystalline forms (HPLC purity, samples placed open and flat)
Assay type: physicochemical
Conditions: heating at 40° C., Day 10
measure.name: HPLC purity Day 10 (%)

> print(dat)
                                    molecule            measure.name  recorded.result
 1  COC(=O)[C@H](c1ccccc1Cl)N1CC[C@@H]2SC(=O)C=C2C1 [Example 4]  HPLC purity Day 10 (%)            99.88
 2  COC(=O)[C@H](c1ccccc1Cl)N1CC[C@@H]2SC(=O)C=C2C1 (racemic) [Comparative preparation example 3, reference compound]  HPLC purity Day 10 (%)            96.13
 3  COC(=O)[C@H](c1ccccc1Cl)N1CC[C@@H]2SC(=O)C=C2C1 [Example 7]  HPLC purity Day 10 (%)            99.88
 4  COC(=O)[C@H](c1ccccc1Cl)N1CC[C@@H]2SC(=O)C=C2C1 (racemic) [Comparative preparation example 2, reference compound]  HPLC purity Day 10 (%)            94.78
 5  COC(=O)[C@H](c1ccccc1Cl)N1CC[C@@H]2SC(=O)C=C2C1 [Example 3]  HPLC purity Day 10 (%)            99.93
 6  COC(=O)[C@H](c1ccccc1Cl)N1CC[C@@H]2SC(=O)C=C2C1 (racemic) [Comparative preparation example 1, reference compound]  HPLC purity Day 10 (%)            95.35
 7  COC(=O)[C@H](c1ccccc1Cl)N1CC[C@@H]2SC(=O)C=C2C1 [Example 5]  HPLC purity Day 10 (%)            99.87
 8  COC(=O)[C@H](c1ccccc1Cl)N1CC[C@@H]2SC(=O)C=C2C1 [Example 2]  HPLC purity Day 10 (%)            99.91
 9  COC(=O)[C@H](c1ccccc1Cl)N1CC[C@@H]2SC(=O)C=C2C1 [Example 6]  HPLC purity Day 10 (%)            99.90
10  COC(=O)[C@H](c1ccccc1Cl)N1CC[C@@H]2SC(=O)C=C2C1 [Example 1]  HPLC purity Day 10 (%)            99.81

Origin of measurements: patent US12371439B2
